Parameter: IC50. Scope: all listed entries.
# TARGET UNDER TEST: human recombinant P2X7 receptors (Homo sapiens)
# Construct: expressed in transfected cells
# Sequence (Q99572 1-595): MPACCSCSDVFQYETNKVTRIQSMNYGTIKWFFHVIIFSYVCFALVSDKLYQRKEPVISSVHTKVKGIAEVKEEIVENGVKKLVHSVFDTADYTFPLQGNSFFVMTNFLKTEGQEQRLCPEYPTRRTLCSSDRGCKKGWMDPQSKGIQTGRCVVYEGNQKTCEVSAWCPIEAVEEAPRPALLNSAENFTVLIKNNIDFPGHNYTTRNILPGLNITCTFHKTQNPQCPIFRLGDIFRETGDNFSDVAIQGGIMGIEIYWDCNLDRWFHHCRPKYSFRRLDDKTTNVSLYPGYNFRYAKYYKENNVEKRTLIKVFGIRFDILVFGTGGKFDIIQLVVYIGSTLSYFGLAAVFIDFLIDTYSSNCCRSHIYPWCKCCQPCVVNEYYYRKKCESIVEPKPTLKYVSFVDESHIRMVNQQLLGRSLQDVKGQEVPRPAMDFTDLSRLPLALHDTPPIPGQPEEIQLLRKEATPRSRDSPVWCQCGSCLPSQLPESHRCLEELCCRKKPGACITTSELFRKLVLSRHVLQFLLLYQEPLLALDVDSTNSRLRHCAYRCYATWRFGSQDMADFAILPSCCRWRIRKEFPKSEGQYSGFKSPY
# TEST SUMMARY: Ethidium Accumulation Assay 1 (HEK293 cells, ATP-induced ethidium uptake)
# Type: cell-based
# RUN PARAMETERS: HEK293 cells expressing human P2X7; 1 mM ATP; sometimes mean of more than one measurement; read-out: Assay 1 (antagonist pIC50 for blocking ATP responses) (converted)

Recorded IC50, per entry:
COMPOUND STRING	OBSERVED PROPERTY	ENDPOINT VALUE
Cc1ccc(-c2nnc3n2CCN(C(=O)c2cccc(Cl)c2Cl)C3)nc1	IC50	< 100 nM
O=C(c1cccc(C(F)(F)F)c1Cl)N1CCn2c(nnc2-c2cccnc2)C1	IC50	< 10 nM
O=C(c1ccc(Cl)c(Cl)c1)N1CCn2c(nnc2-c2cnccn2)C1	IC50	< 100 nM

Input O=C(c1cccc(Cl)c1Cl)N1CCn2c(Br)nnc2C1 . Output IC50: < 100 nM

Input O=C(c1cccc(C(F)(F)F)c1Cl)N1CCn2cnnc2C1 . Output IC50: < 501 nM

Input O=C(c1ccc(F)cc1Cl)N1CCn2c(nnc2-c2cccc(Cl)c2)C1 . Output IC50: < 100 nM

Input O=C(c1ccc(Cl)cc1Cl)N1CCn2c(nnc2-c2ccncn2)C1 . Output IC50: < 100 nM

Input Cc1cccc(-c2nnc3n2CCN(C(=O)c2cccc(Cl)c2Cl)C3)n1 . Output IC50: < 10 nM

Input Cc1ncccc1-c1nnc2n1CCN(C(=O)c1cccc(Cl)c1Cl)C2 . Output IC50: < 100 nM

Input CCCc1nnc2n1CCN(C(=O)c1cccc(C(F)(F)F)c1Cl)C2 . Output IC50: < 100 nM
